# MEASUREMENT CONDITIONS: 318.15 K; 100 kPa; Liquid; Vibrating tube method
± gives the expanded uncertainty stated by the source.
Entries and their mass density values follow.

COMPOUND	mass density
CCCCCCCCCCO [decan-1-ol]	812.4 ± 10 kg/m3
CCCCCCCCCO [nonan-1-ol]	810.1 ± 10 kg/m3
CCCCCCCO [heptan-1-ol]	804.4 ± 10 kg/m3
CCCCCCO [hexan-1-ol]	800.6 ± 10 kg/m3
CCCCCCCCO [octan-1-ol]	807.3 ± 10 kg/m3
CCCCOC(C)=O [butyl ethanoate]	855.3 ± 10 kg/m3
